Task for the reader: assign each of the following molecules its reported pIC50.
Biological target: Kv1.3 potassium channel (Homo sapiens)
Construct: expressed in transfected cells
Sequence (P22001 whole entry): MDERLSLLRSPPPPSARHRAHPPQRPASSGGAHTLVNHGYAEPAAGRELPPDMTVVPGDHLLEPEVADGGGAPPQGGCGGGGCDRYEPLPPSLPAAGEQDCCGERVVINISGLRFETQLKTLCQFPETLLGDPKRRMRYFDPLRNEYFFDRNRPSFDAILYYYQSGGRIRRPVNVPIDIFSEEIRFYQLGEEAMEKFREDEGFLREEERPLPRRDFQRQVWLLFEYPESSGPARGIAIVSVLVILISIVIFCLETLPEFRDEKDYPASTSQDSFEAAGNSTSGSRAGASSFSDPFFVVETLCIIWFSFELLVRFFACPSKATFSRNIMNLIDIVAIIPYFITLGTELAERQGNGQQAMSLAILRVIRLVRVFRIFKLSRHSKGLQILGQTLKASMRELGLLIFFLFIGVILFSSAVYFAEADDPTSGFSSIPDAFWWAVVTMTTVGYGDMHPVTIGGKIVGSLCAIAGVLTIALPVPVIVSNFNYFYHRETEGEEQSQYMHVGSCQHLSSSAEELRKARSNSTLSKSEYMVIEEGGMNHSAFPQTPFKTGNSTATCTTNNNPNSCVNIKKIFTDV
Test: Kv1.3 potassium channel blocker activity, automated whole-cell patch clamp (Patchliner) in CHO-K1 cells stably expressing Kv1.3
Assay type: cell-based
Details: CHO-K1 cells stably expressing Kv1.3; patch clamp, current inhibition; read-out: Kv1.3 IC50
pIC50: −log10 of the molar value.

Which pIC50 is reported for this molecule? CS(=O)(=O)NCC1CC(c2c(O)ccc(Cl)c2Cl)CCN1 (centres unmarked) [Compound 100]
> 6.00

Item under review: Oc1cc(C(F)F)c(Cl)cc1C1CCNCC1 [Compound 41] . Reported pIC50?
> 5.00

Look up pIC50: N[C@H]1CNCC[C@H]1c1cc(Cl)c(Cl)cc1O (relative stereo) [Compound 51]
> 5.00

What value of measured pIC50 is listed for O=C(NCC1CC(c2c(O)ccc(Cl)c2Cl)CCN1)C1COC1 (centres unmarked) [Compound 104] ?
> 6.00

# lookup: pIC50 of Oc1ccc(Br)c(Cl)c1C1CCNCC1 [Compound 81]
> 6.00

pIC50 lookup needed for Oc1cc(Cl)c(Cl)cc1N1CCNCC1 [Compound 5, 4,5-dichloro-2-(piperazin-1-yl)phenol] , thanks.
> 5.00

Look up pIC50 for this molecule: Nc1nnc([C@H]2C[C@@H](c3c(O)ccc(Cl)c3Cl)CCN2)o1 (relative stereo) [Compound 103]
> 5.00

What pIC50 value was documented for this molecule, CNC(=O)C[C@H]1C[C@@H](c2c(O)ccc(Cl)c2Cl)CCN1 (relative stereo) [Compound 115] ?
> 6.00

Need pIC50, item Oc1ccc2ccccc2c1C1CCNCC1 [Compound 18, 1-(piperidin-4-yl)naphthalen-2-ol]
> 6.00

Suppose we examine the molecule O=C(NC1CNC1)[C@@H]1CC[C@H](c2c(O)ccc(Cl)c2Cl)N1 (single isomer, unassigned) [Compound 119] ; what pIC50 value has been reported?
> 5.00

Which pIC50 is reported for this molecule? NCC(=O)N1CCC(c2c(O)cc(Cl)c(Cl)c2Cl)CC1 [Compound 98]
> 6.00

// pIC50 lookup, key: OC[C@@H]1C[C@H](c2cc(Cl)c(Cl)cc2O)CCN1 (single isomer, unassigned) [Compound 35]
> 5.00

Need pIC50, item Oc1cc(Cl)c(Cl)c(Cl)c1C1=CCNCC1 [Compound 46]
> 5.00

For the molecule Oc1cc(Cl)c(Cl)cc1C1CCNC1 (centres unmarked) [Compound 21, 4,5-dichloro-2-(pyrrolidin-3-yl)phenol] , what pIC50 is on record?
> 6.00

Consider the molecule shown here: CC(=O)NCC1CC(c2c(O)ccc(Cl)c2Cl)CCN1 (centres unmarked) [Compound 79] What is its recorded pIC50?
> 6.00

Give its pIC50 value. Item: O=C(C[C@H]1CC(c2c(O)ccc(Cl)c2Cl)CCN1)N1CCOCC1 (single isomer, unassigned) [Compound 67]
> 6.00

Name the recorded pIC50 for Oc1ccc(F)c(Cl)c1C1CCNCC1 [Compound 68] .
> 5.00
